Molecular target: S. cerevisiae Rad54 (Saccharomyces cerevisiae)
Sequence (P32863 whole entry): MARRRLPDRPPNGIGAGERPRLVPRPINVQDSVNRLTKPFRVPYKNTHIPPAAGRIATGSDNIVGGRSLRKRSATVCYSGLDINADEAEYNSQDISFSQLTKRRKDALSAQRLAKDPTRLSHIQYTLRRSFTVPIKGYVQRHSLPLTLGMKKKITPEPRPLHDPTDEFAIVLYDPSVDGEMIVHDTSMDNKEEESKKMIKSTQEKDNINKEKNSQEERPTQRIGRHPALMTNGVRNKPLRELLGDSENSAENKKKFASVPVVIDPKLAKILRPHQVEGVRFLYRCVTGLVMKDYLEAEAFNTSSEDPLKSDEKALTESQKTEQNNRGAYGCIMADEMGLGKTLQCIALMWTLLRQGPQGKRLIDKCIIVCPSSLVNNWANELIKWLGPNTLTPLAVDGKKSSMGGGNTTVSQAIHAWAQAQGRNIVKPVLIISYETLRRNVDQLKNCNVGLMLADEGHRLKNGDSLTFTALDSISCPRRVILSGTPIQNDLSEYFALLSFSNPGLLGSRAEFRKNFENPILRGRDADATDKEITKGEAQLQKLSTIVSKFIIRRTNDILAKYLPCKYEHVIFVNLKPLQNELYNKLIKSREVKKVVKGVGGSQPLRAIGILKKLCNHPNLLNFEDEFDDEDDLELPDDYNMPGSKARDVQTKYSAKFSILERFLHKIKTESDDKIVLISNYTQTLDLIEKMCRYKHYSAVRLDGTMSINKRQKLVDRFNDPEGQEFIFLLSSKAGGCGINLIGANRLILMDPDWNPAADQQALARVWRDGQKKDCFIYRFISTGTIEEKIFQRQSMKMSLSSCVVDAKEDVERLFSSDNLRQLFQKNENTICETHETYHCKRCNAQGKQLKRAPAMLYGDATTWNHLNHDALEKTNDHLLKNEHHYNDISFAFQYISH
Experiment: malachite green phosphate ATPase assay
Type: biochemical
Readout: pIC50
# pIC50 = -log10(concentration in molar units)

# input Query pIC50 for CN(C)CCCNCC(O)Cn1c2ccc(Cl)cc2c2cc(Cl)ccc21 (stereo not shown) [54i-1]
# output 5.42

###

Biological target: H. sapiens VCP/p97 (Homo sapiens)
Sequence (P55072 2-806): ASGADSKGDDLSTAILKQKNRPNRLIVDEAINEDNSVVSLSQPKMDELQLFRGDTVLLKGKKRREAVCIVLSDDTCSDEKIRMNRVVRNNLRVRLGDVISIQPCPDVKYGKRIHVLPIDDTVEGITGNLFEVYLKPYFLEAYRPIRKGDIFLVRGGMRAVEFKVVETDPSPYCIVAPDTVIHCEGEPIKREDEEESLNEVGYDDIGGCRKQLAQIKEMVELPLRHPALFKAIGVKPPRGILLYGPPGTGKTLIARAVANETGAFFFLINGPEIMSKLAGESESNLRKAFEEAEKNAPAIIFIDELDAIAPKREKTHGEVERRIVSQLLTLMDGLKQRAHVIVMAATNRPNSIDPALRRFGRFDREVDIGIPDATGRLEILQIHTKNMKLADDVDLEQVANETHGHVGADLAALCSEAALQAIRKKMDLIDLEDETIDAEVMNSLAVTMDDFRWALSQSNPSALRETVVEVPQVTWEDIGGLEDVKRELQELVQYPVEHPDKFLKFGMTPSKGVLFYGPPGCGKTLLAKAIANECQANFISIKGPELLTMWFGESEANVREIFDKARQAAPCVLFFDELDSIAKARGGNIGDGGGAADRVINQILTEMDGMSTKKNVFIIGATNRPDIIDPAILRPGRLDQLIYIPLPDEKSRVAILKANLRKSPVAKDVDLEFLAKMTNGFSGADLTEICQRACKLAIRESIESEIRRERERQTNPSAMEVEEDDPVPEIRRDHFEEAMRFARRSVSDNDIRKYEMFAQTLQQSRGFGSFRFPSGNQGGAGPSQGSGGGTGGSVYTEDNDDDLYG
Experiment: malachite green phosphate ATPase assay
pIC50: −log10 of the molar value.
Readout: pIC50

# input Indicate its recorded pIC50; the molecule in question is CN(C)CCCNCC(O)Cn1c2ccc(Cl)cc2c2cc(Cl)ccc21 (stereo not shown) [54i-1]
# output < 3.30
